# targetOfAssay: full-length beta-Catenin (Uniprot ID P35222) (Homo sapiens, UniProt P35222)
# Construct: 10 nM full-length beta-Catenin (Uniprot ID P35222)
# Sequence (P35222 1-781): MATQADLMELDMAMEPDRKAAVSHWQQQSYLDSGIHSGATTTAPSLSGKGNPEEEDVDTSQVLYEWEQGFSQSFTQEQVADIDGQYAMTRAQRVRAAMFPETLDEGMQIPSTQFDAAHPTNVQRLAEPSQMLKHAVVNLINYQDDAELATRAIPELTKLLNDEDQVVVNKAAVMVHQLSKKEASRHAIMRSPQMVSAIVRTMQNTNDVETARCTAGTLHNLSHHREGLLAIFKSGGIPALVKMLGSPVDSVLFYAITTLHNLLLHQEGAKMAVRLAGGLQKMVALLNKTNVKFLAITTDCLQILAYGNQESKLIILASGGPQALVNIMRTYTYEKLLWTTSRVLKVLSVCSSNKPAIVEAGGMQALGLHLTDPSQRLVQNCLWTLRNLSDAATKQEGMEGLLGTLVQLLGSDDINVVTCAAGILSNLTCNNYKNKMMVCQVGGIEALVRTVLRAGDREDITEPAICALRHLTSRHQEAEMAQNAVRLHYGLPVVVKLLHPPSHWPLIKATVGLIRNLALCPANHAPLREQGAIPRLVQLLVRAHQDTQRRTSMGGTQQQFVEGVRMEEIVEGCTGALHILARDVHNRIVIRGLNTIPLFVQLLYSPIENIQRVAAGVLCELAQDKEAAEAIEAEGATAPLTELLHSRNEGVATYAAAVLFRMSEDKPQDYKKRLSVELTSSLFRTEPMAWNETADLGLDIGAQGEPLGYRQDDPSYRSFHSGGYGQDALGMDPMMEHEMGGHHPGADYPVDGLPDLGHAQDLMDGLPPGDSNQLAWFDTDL
# assayMethodText: Fluorescence polarization IC50 (beta-catenin / 5FAM-TCF4 10-53 competition)
# Type: binding
# measurementParameters: read-out: beta-Catenin FP IC50
pIC50: −log10 of the molar value.
t means recorded pIC50 is 8 or above; f means it is below 8.

Sample answers from the record:
compound	label
CC(=O)N1CCC[C@]12CC=CCCCC1(CCCC=CCCCOC(=O)N3CC[C@@](C(=O)N[C@@H](Cc4ccccc4Cl)C(=O)N[C@@H](Cc4csc5ccccc45)C(=O)N[C@@H](C)CO)(C3)NC(=O)[C@H](CC(N)=O)NC(=O)[C@H](Cc3ccccc3)NC(=O)[C@H](C)NC(=O)[C@H](C)NC(=O)[C@H](CC(=O)O)NC(=O)[C@H](CC(=O)O)NC1=O)NC(=O)[C@H](CC(C)(C)C)NC(=O)[C@H](CC(=O)O)NC2=O (some centres unmarked)	t
CC(=O)N1CCC[C@]12CC=CCCCC1(CCCC=CCCCCCC[C@@](C)(C(=O)N[C@@H](Cc3ccccc3Cl)C(=O)N[C@@H](Cc3csc4ccccc34)C(=O)N[C@@H](C(N)=O)[C@H](C)O)NC(=O)[C@H]([C@@H](C)O)NC(=O)[C@H](Cc3ccccc3)NC(=O)[C@H](C)NC(=O)[C@H](C)NC(=O)[C@H](CC(=O)O)NC(=O)[C@H](CC(=O)O)NC1=O)NC(=O)[C@H](CC(C)(C)C)NC(=O)[C@H](CC(=O)O)NC2=O (some centres unmarked)	f
CC(=O)N1CCC[C@]12CC=CCCCC1(CCCC=CCCCOC(=O)N3CC[C@@](C(=O)N[C@@H](Cc4ccsc4)C(=O)N[C@@H](Cc4csc5ccccc45)C(=O)NC(CCCCNC(=O)c4ccc5c(c4)B(O)OC5)C(N)=O)(C3)NC(=O)[C@H](CC(C)C)NC(=O)[C@H](Cc3ccccc3)NC(=O)[C@H](C)NC(=O)[C@H](C)NC(=O)[C@H](CN(CC(=O)O)CC(F)(F)F)NC(=O)[C@H](CC(=O)O)NC1=O)NC(=O)[C@H](CC(C)(C)C)NC(=O)[C@H](CC(=O)O)NC2=O (some centres unmarked) [I-2186]	f

Turning now to a further compound:
Does the reported pIC50 for CC(=O)N1CCC[C@]12CC=CCCCC1(CCCC=CCCCOC(=O)N3CC[C@@](C(=O)N[C@@H](Cc4cccc(Cl)c4)C(=O)N[C@@H](Cc4csc5ccccc45)C(=O)N[C@@H](CCC(N)=O)C(N)=O)(C3)NC(=O)[C@H](CC(N)=O)NC(=O)[C@H](Cc3ccccc3)NC(=O)[C@H](C)NC(=O)[C@H](C)NC(=O)[C@H](CN(CC(=O)O)CC(F)(F)F)NC(=O)[C@H](CC(=O)O)NC1=O)NC(=O)[C@H](CC(C)(C)C)NC(=O)[C@H](CC(=O)O)NC2=O (some centres unmarked) [I-925] fall at or above the 8 mark?
f
